Target: GDP-bound KRAS wild-type protein (Homo sapiens, UniProt P01116)
Sequence (P01116 whole entry): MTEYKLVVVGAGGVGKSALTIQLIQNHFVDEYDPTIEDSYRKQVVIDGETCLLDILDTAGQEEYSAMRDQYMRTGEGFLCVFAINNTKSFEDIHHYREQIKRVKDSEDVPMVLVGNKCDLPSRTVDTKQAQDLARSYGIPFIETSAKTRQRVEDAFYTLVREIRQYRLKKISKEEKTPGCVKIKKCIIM
Test: Binding to KRAS by surface plasmon resonance (SPR), Single Cycle Kinetics
Settings: SPR Single Cycle Kinetics, GDP-bound KRAS wild-type protein, 1:1 binding model; read-out: KRAS KD
Where a SMILES comes first, the peptide text is derived from it. Bridges are numbered along the chain shown (N, C = ends). [ ]: non-standard residue; d: D form. The star is where a group is joined. hPhe(3,5-F2-4-CF3) = N[C@@H](CCc1cc(F)c(C(F)(F)F)c(F)c1)C(=O)O; hPhe(3-Cl-4-CF3) = N[C@@H](CCc1ccc(C(F)(F)F)c(Cl)c1)C(=O)O; NPrPhe(4-CF3) = CCCN[C@@H](Cc1ccc(C(F)(F)F)cc1)C(=O)O; NMeGly(cPent) = CN[C@H](C(=O)O)C1CCCC1; Hyp = O=C(O)[C@@H]1C[C@@H](O)CN1; NMeD = CN[C@@H](CC(=O)O)C(=O)O; NMeL = CN[C@@H](CC(C)C)C(=O)O; Pip = O=C(O)[C@@H]1CCCCN1; Iva = CC[C@](C)(N)C(=O)O; Morpholide = C1CN(*)CCO1; Ac5c = NC1(C(=O)O)CCCC1; Aze = O=C(O)[C@@H]1CCN1; Ac4c = NC1(C(=O)O)CCC1; Sar = CNCC(=O)O
Here, each record is paired with measured Kd data.
Hi! Could you send only the number? It should be in nM, unit omitted.

Observe how each entry below is paired with its result.
CCCN1C(=O)CN(C)C(=O)CN(C)C(=O)[C@H]([C@@H](C)CC)NC(=O)[C@H](CC(C)C)N(C)C(=O)C[C@@H](C(=O)N2CCOCC2)N(C)C(=O)[C@H](C2CCCC2)N(C)C(=O)C2(CCCC2)NC(=O)[C@@H]2CCCCN2C(=O)[C@H](CCc2ccc(C(F)(F)F)c(Cl)c2)NC(=O)CN(C)C(=O)[C@@H]1Cc1ccc(C(F)(F)F)cc1 [PP0263] ([NMeL]I[Sar][Sar][NPrPhe(4-CF3)][Sar][hPhe(3-Cl-4-CF3)][Pip][Ac5c][NMeGly(cPent)][NMeD]-Morpholide; lactam N-11)
0.47
CCCN1C(=O)CN(C)C(=O)[C@@H]2CCN2C(=O)[C@H]([C@@H](C)CC)NC(=O)[C@H](CC(C)C)N(C)C(=O)C[C@@H](C(=O)N2CCOCC2)N(C)C(=O)[C@H](C2CCCC2)N(C)C(=O)C2(CCC2)NC(=O)[C@@H]2C[C@@H](OCC)CN2C(=O)[C@H](CCc2ccc(C(F)(F)F)c(Cl)c2)NC(=O)CN(C)C(=O)[C@@H]1Cc1ccc(C(F)(F)F)cc1 [PP0405] ([NMeL]I[Aze][Sar][NPrPhe(4-CF3)][Sar][hPhe(3-Cl-4-CF3)][Hyp](Et)[Ac4c][NMeGly(cPent)][NMeD]-Morpholide; lactam N-11)
0.31
CCCN1C(=O)CN(C)C(=O)CN(C)C(=O)[C@H]([C@@H](C)CC)NC(=O)[C@H](CC(C)C)N(C)C(=O)C[C@@H](C(=O)N2CCOCC2)N(C)C(=O)[C@H](C2CCCC2)N(C)C(=O)[C@](C)(CC)NC(=O)[C@@H]2CCCN2C(=O)[C@H](CCc2cc(F)c(C(F)(F)F)c(F)c2)NC(=O)CN(C)C(=O)[C@@H]1Cc1ccc(C(F)(F)F)cc1 [PP0754] ([NMeL]I[Sar][Sar][NPrPhe(4-CF3)][Sar][hPhe(3,5-F2-4-CF3)]P[Iva][NMeGly(cPent)][NMeD]-Morpholide; lactam N-11)
0.49

Recorded Kd for CCCN1C(=O)CN(C)C(=O)[C@@H]2CCN2C(=O)[C@H]([C@@H](C)CC)NC(=O)[C@H](CC(C)C)N(C)C(=O)C[C@@H](C(=O)N(C)C)N(C)C(=O)[C@H](C2CCCC2)N(C)C(=O)C2(CCC2)NC(=O)[C@@H]2CCCN2C(=O)[C@H](CCc2ccc(C(F)(F)F)c(Cl)c2)NC(=O)CN(C)C(=O)[C@@H]1Cc1ccc(C(F)(F)F)cc1 [PP0430] ([NMeL]I[Aze][Sar][NPrPhe(4-CF3)][Sar][hPhe(3-Cl-4-CF3)]P[Ac4c][NMeGly(cPent)][NMeD]-NMe2; lactam N-11) , please? 0.26

Now the compound CCO[C@@H]1C[C@H]2C(=O)NC3(CC(C)(C)C3)C(=O)N(C)[C@@H](C(CC)CC)C(=O)N(C)[C@H](C(=O)N3CCCC3)CC(=O)N(C)[C@H]3CCC/C=C/c4ccc(cc4)C[C@@H](C(=O)N(C)CC(=O)N[C@@H](CCc4ccc(Cl)c(Cl)c4)C(=O)N2C1)N1CC/C=C\C[C@@H](C1=O)N(C)C(=O)CN(C)C(=O)[C@H]([C@@H](C)CC)NC3=O 0.21

* * *

Target: GDP-bound KRAS wild-type protein (Homo sapiens)
Assay: Binding to KRAS by surface plasmon resonance (SPR), Single Cycle Kinetics
Conditions: SPR Single Cycle Kinetics, GDP-bound KRAS wild-type protein, 1:1 binding model; read-out: KRAS KD
experimental readout: Kd (nM)
Hi! Could you send only the number? It should be in nM, unit omitted.

Observe how each entry below is paired with its result.
CCC[C@H]1C(=O)N[C@@H](CC(C)C)C(=O)N(CCOC)CC(=O)N(C)[C@H]2C/C=C\CCN(C2=O)[C@@H](Cc2ccc(C)cc2)C(=O)N(C)CC(=O)N[C@@H](CCc2cc(F)c(C(F)(F)F)c(F)c2)C(=O)N2C[C@H](OCC)C[C@H]2C(=O)NC2(CCC2)C(=O)N(C)[C@@H](C2CCCC2)C(=O)N(C)[C@H](C(=O)N(C)C)CC(=O)N1C [PP2541]
4.9
CCO[C@@H]1C[C@H]2C(=O)NC3(CCC3)C(=O)N(C)[C@@H](C3CCCC3)C(=O)N(CCC3CCC3)[C@H](C(=O)N(C)C)CC(=O)N(C)[C@@H](CC)C(=O)N[C@@H]([C@@H](C)CC)C(=O)N(C)CC(=O)N(C)[C@H]3CCCCN(C3=O)[C@@H](Cc3ccc(C(F)(F)F)cc3)C(=O)N(C)CC(=O)N[C@@H](CCc3cc(F)c(C(F)(F)F)c(F)c3)C(=O)N2C1 [PP0645]
0.028

Recorded Kd for CC[C@H](C)[C@@H]1NC(=O)[C@@H]2CCC/C=C/c3ccc(cc3)C[C@@H](C(=O)N(C)CC(=O)N[C@@H](CCc3ccc(Cl)c(Cl)c3)C(=O)N3CCC[C@H]3C(=O)NC3(CC(C)(C)C3)C(=O)N(C)[C@@H](C3CCCC3)C(=O)N(C)[C@H](C(=O)N(C)CC)CC(=O)N2C)N2CC/C=C\C[C@@H](C2=O)N(C)C(=O)CN(C)C1=O [PP2601] , please? 0.2

* * *

Biological target: UniProtKB P01116
Experiment: Binding to KRAS by surface plasmon resonance (SPR), Single Cycle Kinetics
Conditions: SPR, Single Cycle Kinetics, GDP-bound KRAS wild-type protein; read-out: KRAS KD
experimental readout: Kd (nM)
Hi! Could you send only the number? It should be in nM, unit omitted.

Observe how each entry below is paired with its result.
CCO[C@@H]1C[C@H]2C(=O)NC3(CC(C)(C)C3)C(=O)N(C)[C@@H](C(CC)CC)C(=O)N(C)[C@H](C(=O)N(C)C)CC(=O)N(C)[C@@H](COC)C(=O)N[C@@H]([C@@H](C)CC)C(=O)N(C)CC(=O)N(C)[C@H]3C/C=C\CCN(C3=O)[C@@H](CC3CCCCC3)C(=O)N(C)CC(=O)N[C@@H](CCc3ccc(C(F)(F)F)c(OC)c3)C(=O)N2C1
1.5
CCO[C@@H]1C[C@H]2C(=O)NC3(CCCC3)C(=O)N(C)[C@@H](C3CCCC3)C(=O)N(C)[C@H](C(=O)N(C)C)CC(=O)N(C)[C@@H](CC)C(=O)N[C@@H]([C@@H](C)CC)C(=O)N(C)CC(=O)N(C)[C@H]3CC(C)=C(C)CN(C3=O)[C@@H](Cc3ccc(C(F)(F)F)cc3)C(=O)N(C)CC(=O)N[C@@H](CCc3cc(F)c(C(F)(F)F)c(F)c3)C(=O)N2C1
0.94
CC[C@H](C)[C@@H]1NC(=O)[C@H](C2CC2)N(C)C(=O)C[C@@H](C(=O)N(C)CC)N(C)C(=O)[C@H](C2CCCC2)N(C)C(=O)C2(CCC2)NC(=O)[C@@H]2C[C@H](C)CN2C(=O)[C@H](CCc2ccc(C(F)(F)F)c(OC)c2)NC(=O)CN(C)C(=O)[C@H](Cc2ccc(C(F)(F)F)cc2)N2CC/C=C\C[C@@H](C2=O)N(C)C(=O)CN(C)C1=O
0.082
CCO[C@@H]1C[C@H]2C(=O)NC3(CC(C)(C)C3)C(=O)N(C)[C@@H](C(CC)CC)C(=O)N(C)[C@H](C(=O)N3CCCC3)CC(=O)N(C)[C@@H](CC)C(=O)N[C@@H]([C@@H](C)CC)C(=O)N(C)CC(=O)N(C)[C@H]3C/C=C\CCN(C3=O)[C@@H](Cc3ccc(C)cc3)C(=O)N(C)CC(=O)N[C@@H](CCc3ccc(C(F)(F)F)c(OC)c3)C(=O)N2C1
0.75
CC[C@H](C)[C@@H]1NC(=O)[C@H](CC(C)C)N(C)C(=O)C[C@@H](C(=O)N(C)C)N(C)C(=O)[C@H](C2CCCC2)N(C)C(=O)C2(CCC2)N(C)C(=O)[C@@H]2CCCN2C(=O)[C@H](CCc2cc(F)c(C(F)(F)F)c(F)c2)NC(=O)CN(C)C(=O)[C@H](Cc2ccc(C)cc2)N2CC/C=C\C[C@@H](C2=O)N(C)C(=O)CN(C)C1=O
0.042

Recorded Kd for CCO[C@@H]1C[C@H]2C(=O)NC3(CC(C)(C)C3)C(=O)N(C)[C@@H](C3CCCCC3)C(=O)N(C)[C@H](C(=O)N(C)C)CC(=O)N(C)[C@@H](CC)C(=O)N[C@@H]([C@@H](C)CC)C(=O)N(C)CC(=O)N(C)[C@H]3C/C=C\CCN(C3=O)[C@@H](Cc3ccc(C(F)(F)F)cc3)C(=O)N(C)CC(=O)N[C@@H](CCc3cc(F)c(C(F)(F)F)c(F)c3)C(=O)N2C1 , please? 0.15

Now the compound CCO[C@@H]1C[C@H]2C(=O)N(C)C3(CCC3)C(=O)N(C)[C@@H](C3CCCC3)C(=O)N(C)[C@H](C(=O)N(C)C)CC(=O)N(C)[C@@H](C3CC3)C(=O)N[C@@H]([C@@H](C)CC)C(=O)N(C)CC(=O)N(C)[C@H]3C/C=C\CCN(C3=O)[C@@H](Cc3ccc(C)cc3)C(=O)N(C)CC(=O)N[C@@H](CCc3cc(F)c(C(F)(F)F)c(F)c3)C(=O)N2C1 0.028

Now the compound CCO[C@@H]1C[C@H]2C(=O)NC3(CCC3)C(=O)N(C)[C@@H](C3CCCC3)C(=O)N(C)[C@H](C(=O)N(C)C)CC(=O)N(C)[C@@H](CC)C(=O)N[C@@H]([C@@H](C)CC)C(=O)N(C)CC(=O)N(C)[C@H]3CCCCCN(C3=O)[C@@H](Cc3ccc(F)cc3)C(=O)N(C)CC(=O)N[C@@H](CCc3cc(F)c(C(F)(F)F)c(F)c3)C(=O)N2C1 0.092

Now the compound CCC[C@H]1C(=O)N[C@@H]([C@@H](C)CC)C(=O)N(C)CC(=O)N(C)[C@H]2C/C=C\CCN(C2=O)[C@@H](Cc2ccc(C)cc2)C(=O)N(C)CC(=O)N[C@@H](CCc2ccc(C(F)(F)F)c(Cl)c2)C(=O)N2C[C@H](CC)C[C@H]2C(=O)NC2(CC(C)(C)C2)C(=O)N(C)[C@@H](C2CCCC2)C(=O)N(C)[C@H](C(=O)N(C)C)CC(=O)N1C 0.34

Now the compound C#CC[C@H]1C(=O)N[C@@H]([C@@H](C)CC)C(=O)N(C)CC(=O)N(C)[C@H]2C/C=C\CCN(C2=O)[C@@H](Cc2ccc(C(F)(F)F)cc2)C(=O)N(C)CC(=O)N[C@@H](CCc2cc(F)c(C(F)(F)F)c(F)c2)C(=O)N2C[C@@H](C)C[C@H]2C(=O)NC2(CC(C)(C)C2)C(=O)N(C)[C@@H](C2CCCC2)C(=O)N(C)[C@H](C(=O)N(C)CC)CC(=O)N1C 0.22

Now the compound CCO[C@@H]1C[C@H]2C(=O)NC3(CC(F)(F)C3)C(=O)N(C)[C@@H](C3CCCC3)C(=O)N3CCC[C@@H]3CC(=O)N(C)[C@@H](CC3CC3)C(=O)N[C@@H]([C@@H](C)CC)C(=O)N(C)CC(=O)N(C)[C@H]3C/C=C\CCN(C3=O)[C@@H](Cc3ccc(C(F)(F)F)cc3)C(=O)N(C)CC(=O)N[C@@H](CCc3cc(F)c(C(F)(F)F)c(F)c3)C(=O)N2C1 0.45

Just for reference, patent US20240158446A1 is where these values come from.
